target: Glucocorticoid receptor (Homo sapiens) (UniProt P04150); assay: GR-EFC Redistribution (AID 451); conditions: CHO-K1 GR-EFC translocation, beta-gal luminescence, 2 h; also: potency is read from the fitted curve at half-maximal effect
Sequence (P04150 whole entry, looked up): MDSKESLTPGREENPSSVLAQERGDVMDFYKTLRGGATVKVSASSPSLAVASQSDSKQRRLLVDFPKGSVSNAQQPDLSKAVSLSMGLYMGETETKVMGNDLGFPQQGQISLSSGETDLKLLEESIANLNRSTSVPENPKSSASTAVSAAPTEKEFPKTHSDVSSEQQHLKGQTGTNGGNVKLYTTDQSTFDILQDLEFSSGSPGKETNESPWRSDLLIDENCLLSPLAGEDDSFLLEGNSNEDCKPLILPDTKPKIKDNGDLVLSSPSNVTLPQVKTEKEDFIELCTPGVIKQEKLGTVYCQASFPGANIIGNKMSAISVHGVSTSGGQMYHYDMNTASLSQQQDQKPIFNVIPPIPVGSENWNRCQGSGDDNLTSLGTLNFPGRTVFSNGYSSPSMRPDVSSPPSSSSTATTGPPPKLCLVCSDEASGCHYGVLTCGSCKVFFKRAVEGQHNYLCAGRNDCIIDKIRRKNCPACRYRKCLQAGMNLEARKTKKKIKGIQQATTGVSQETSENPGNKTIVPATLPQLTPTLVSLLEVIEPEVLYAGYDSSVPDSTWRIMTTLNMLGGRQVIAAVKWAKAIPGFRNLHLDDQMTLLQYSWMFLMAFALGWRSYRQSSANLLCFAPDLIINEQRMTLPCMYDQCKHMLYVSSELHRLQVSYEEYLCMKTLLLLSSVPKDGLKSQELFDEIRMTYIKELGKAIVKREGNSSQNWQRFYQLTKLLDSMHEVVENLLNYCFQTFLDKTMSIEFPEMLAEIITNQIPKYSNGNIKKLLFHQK
The source made the active and inactive calls. Calls follow the shape of the full dose curve.
Metric name: Potency

>  <Smiles representation>
COc1cc2c(cc1OC)[C@H](c1ccccc1)CN(C)CC2

>  <Study target>
Glucocorticoid receptor (Homo sapiens) (UniProt P04150)

>  <Result>
> 46 µM (inactive)

$$$$
>  <Smiles representation>
CC(C)[C@H]1C(=O)C(C(N)=O)=C(O)[C@]2(O)C(=O)C3=C(O)c4c(O)ccc(N(C)C)c4C[C@H]3C[C@@H]12

>  <Study target>
Glucocorticoid receptor (Homo sapiens) (UniProt P04150)

>  <Result>
> 46 µM (inactive)

$$$$
>  <Smiles representation>
O=C(O)[C@H](Cc1ccccc1)N1C(=O)c2ccccc2C1=O

>  <Study target>
Glucocorticoid receptor (Homo sapiens) (UniProt P04150)

>  <Result>
> 9.22 µM (inactive)

$$$$
>  <Smiles representation>
O=[N+]([O-])c1cccc(/C=N\Nc2ccc3ccccc3n2)c1O

>  <Study target>
Glucocorticoid receptor (Homo sapiens) (UniProt P04150)

>  <Result>
> 9.22 µM (inactive)

$$$$
>  <Smiles representation>
CC(C)N(Cc1ccccc1)S(=O)(=O)c1n[nH]c(C(C)(C)C)n1

>  <Study target>
Glucocorticoid receptor (Homo sapiens) (UniProt P04150)

>  <Result>
> 9.22 µM (inactive)

$$$$

----------
molecular target: Retinoic acid receptor RXR-alpha (Homo sapiens) (UniProt P19793); assay: qHTS assay for small molecule antagonists of retinoid X receptor alpha signaling (AID 588546); settings: HEK293T RXRa-UAS-bla, beta-lactamase ratio, antagonist mode;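 also: cells stimulated with 9-cis-retinoic acid as agonist; % is scaled to controls: 0 for no effect and ±100 for the full control effect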
Sequence (P19793 whole entry, looked up): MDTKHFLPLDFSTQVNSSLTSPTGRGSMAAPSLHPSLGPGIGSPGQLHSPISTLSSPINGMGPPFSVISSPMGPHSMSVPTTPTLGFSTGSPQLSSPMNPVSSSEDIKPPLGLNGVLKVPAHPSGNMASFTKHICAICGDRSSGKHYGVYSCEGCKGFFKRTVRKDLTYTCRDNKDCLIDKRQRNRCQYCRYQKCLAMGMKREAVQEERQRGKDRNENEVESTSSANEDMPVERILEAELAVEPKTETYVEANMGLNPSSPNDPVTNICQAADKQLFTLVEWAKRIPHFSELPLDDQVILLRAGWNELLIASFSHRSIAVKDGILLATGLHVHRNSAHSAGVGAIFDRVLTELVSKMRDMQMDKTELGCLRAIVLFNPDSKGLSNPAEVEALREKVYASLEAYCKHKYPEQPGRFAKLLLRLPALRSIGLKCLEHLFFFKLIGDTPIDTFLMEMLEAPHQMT
Results filed as inconclusive are left out.
Metric name: max response (%)

>  <Compound>
CC(C)S

>  <Metric name>
max response

>  <Numeric readout>
1.63

$$$$
>  <Compound>
C=Cc1cccc(C)c1

>  <Metric name>
max response

>  <Numeric readout>
-5.75

$$$$
>  <Compound>
Clc1nc2ccccc2nc1Cl

>  <Metric name>
max response

>  <Numeric readout>
31

$$$$
>  <Compound>
Cc1cc(-c2ccc(N=Nc3cc(S(=O)(=O)O)c4ccccc4c3N)c(C)c2)ccc1N=Nc1cc(S(=O)(=O)O)c2ccccc2c1N

>  <Metric name>
max response

>  <Numeric readout>
0.921

$$$$
>  <Compound>
CCC(Cl)CC(Cl)C(Cl)C(Cl)C(Cl)C(C)Cl (centres undefined)

>  <Metric name>
max response

>  <Numeric readout>
-1.06

$$$$
>  <Compound>
O=C(Cl)c1ccc([N+](=O)[O-])cc1

>  <Metric name>
max response

>  <Numeric readout>
11.8

$$$$
>  <Compound>
CCCCCCc1ccc(-c2ccc(C#N)cc2)cc1

>  <Metric name>
max response

>  <Numeric readout>
-14.6

$$$$
>  <Compound>
OC1CCCCC1

>  <Metric name>
max response

>  <Numeric readout>
-3.43

$$$$
>  <Compound>
Oc1ccc2c(c1)OCO2

>  <Metric name>
max response

>  <Numeric readout>
10.9

$$$$
>  <Compound>
CCOc1ccc2nc(N)sc2c1

>  <Metric name>
max response

>  <Numeric readout>
-7.66

$$$$
>  <Compound>
O=C(O)/C=C/c1ccc(/C=C/C(=O)O)cc1

>  <Metric name>
max response

>  <Numeric readout>
14.1

$$$$
>  <Compound>
Nc1cnn([C@@H]2O[C@H](CO)[C@@H](O)[C@H]2O)c(=O)n1

>  <Metric name>
max response

>  <Numeric readout>
-17.1

$$$$
>  <Compound>
c1ccc2c(c1)ccc1ccccc12

>  <Metric name>
max response

>  <Numeric readout>
9.87

$$$$
>  <Compound>
O=CC(=O)c1ccccc1

>  <Metric name>
max response

>  <Numeric readout>
6.37

$$$$
